- Experimental target: T1, RBFOX1 RRM (Homo sapiens, UniProt Q9NWB1 109-208)
- T1 sequence: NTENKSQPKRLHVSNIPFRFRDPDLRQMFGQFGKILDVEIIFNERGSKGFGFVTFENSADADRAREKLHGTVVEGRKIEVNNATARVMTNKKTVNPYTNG
- Experiment: EMSA; HiTS-Eq, 1 nM pool, 10 min; buffer printed only for the single-RNA assays: 10 mM Tris pH 7.5, 150 mM NaCl, 3.4 mM EDTA, 0.001% NP-40, 30 C
- Applied conditions: tags: His6 N-terminal (pET28a); label: 5' 32P
In all, about 16,000 sequences were measured (“ka relative to ugcaugu”: median about 0.0091, highest 2% from about 0.032 on). Only a selection was taken, and the highest values are over-represented in it overall.
Value kind: binding signal

Challenge: Form field: reported binding signal of GGAUGCC (DNA:RNA) RNA: GGGAGACCGGAAUUCAGAUUGUCCGGAUGCCUUAAAUCCCGUCGUAGCCACCA DNA 1: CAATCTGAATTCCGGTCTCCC DNA 2: TGGTGGCTACGACGGGATT
Response given: 0.0339 KA relative to UGCAUGU

Challenge: Thanks! And GUAUGCA (DNA:RNA) RNA: GGGAGACCGGAAUUCAGAUUGUCCGUAUGCAUUAAAUCCCGUCGUAGCCACCA DNA 1: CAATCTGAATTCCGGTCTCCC DNA 2: TGGTGGCTACGACGGGATT ?
Response given: 0.0319 KA relative to UGCAUGU

Challenge: Request: GCAUCCC (DNA:RNA) RNA: GGGAGACCGGAAUUCAGAUUGUCCGCAUCCCUUAAAUCCCGUCGUAGCCACCA DNA 1: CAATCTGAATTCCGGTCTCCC DNA 2: TGGTGGCTACGACGGGATT
Response given: 0.0182 KA relative to UGCAUGU

Challenge: Record: AGCCUGC (DNA:RNA) RNA: GGGAGACCGGAAUUCAGAUUGUCCAGCCUGCUUAAAUCCCGUCGUAGCCACCA DNA 1: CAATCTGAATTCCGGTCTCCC DNA 2: TGGTGGCTACGACGGGATT
Response given: 0.0203 KA relative to UGCAUGU

meta.source: paper PMC9911399
